Entries annotated with measured inhibition at 1 µM
Molecular target: wild-type human cardiac sodium channel, hNav1.5 (late sodium current) in HEK293 cells (Homo sapiens, UniProt Q14524)
Sequence (Q14524 whole entry): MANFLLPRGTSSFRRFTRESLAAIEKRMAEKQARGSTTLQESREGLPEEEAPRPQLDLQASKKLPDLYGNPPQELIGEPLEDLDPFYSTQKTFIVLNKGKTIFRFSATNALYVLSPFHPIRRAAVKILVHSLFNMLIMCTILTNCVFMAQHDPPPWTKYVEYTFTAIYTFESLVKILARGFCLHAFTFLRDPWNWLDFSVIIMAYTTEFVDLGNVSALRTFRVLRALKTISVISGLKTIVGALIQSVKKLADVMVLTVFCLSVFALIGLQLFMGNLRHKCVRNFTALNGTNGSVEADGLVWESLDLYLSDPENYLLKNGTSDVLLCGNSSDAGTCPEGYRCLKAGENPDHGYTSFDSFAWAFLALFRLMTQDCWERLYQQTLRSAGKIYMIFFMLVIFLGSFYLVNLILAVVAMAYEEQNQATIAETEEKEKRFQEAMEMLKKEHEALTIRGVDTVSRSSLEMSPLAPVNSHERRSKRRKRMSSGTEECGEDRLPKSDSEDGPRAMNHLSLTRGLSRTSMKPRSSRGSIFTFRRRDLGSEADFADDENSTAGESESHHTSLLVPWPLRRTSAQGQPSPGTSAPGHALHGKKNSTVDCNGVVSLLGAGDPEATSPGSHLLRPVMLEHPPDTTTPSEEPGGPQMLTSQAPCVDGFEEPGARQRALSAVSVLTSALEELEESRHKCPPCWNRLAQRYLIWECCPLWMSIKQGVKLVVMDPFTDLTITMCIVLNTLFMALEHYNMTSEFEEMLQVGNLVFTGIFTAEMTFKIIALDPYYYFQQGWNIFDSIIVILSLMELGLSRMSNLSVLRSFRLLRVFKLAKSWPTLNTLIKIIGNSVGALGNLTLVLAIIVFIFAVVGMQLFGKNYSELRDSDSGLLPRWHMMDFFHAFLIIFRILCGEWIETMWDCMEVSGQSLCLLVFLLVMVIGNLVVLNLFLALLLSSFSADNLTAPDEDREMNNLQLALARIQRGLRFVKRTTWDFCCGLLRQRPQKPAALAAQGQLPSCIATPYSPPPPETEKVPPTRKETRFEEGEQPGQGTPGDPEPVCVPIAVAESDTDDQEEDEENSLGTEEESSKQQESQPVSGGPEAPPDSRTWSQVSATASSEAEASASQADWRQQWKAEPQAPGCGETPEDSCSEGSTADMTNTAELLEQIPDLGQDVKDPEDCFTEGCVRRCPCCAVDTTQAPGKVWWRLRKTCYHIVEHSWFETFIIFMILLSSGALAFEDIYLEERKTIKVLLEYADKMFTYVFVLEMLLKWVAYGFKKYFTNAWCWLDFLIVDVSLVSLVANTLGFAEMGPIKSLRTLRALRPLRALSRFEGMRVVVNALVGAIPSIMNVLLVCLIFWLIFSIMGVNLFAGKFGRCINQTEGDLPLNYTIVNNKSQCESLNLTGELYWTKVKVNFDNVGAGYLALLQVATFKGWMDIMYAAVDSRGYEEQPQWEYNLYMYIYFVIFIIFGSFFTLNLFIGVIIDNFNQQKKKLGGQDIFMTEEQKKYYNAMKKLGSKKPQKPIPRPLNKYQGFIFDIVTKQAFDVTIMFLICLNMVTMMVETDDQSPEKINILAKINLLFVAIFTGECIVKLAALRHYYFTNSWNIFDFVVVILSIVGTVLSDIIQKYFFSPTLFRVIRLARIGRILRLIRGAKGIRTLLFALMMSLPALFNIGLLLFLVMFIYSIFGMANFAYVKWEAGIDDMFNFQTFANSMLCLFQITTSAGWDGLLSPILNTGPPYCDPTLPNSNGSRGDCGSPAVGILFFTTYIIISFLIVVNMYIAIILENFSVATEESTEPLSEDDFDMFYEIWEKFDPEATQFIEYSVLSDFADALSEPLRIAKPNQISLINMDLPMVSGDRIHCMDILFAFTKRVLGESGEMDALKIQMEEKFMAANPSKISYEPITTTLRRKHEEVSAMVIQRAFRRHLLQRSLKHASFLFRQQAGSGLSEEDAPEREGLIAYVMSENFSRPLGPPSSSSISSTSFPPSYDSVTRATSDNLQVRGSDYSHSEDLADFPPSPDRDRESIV
Experiment: Late INa screening assay (automated whole-cell patch clamp, PatchXpress)
Format: cell-based
Settings: HEK293, compound at 1 μM; late INa generated with 10 μM Tefluthrin (or 50 nM ATX II); HEK293 hNav1.5; read-out: Late INa 1 μM (percent block of late INa)
readout label: inhibition at 1 µM

compound	readout label	measurement
O=c1n(CCc2cccnc2)nc2ccc(-c3ccc(OC(F)(F)F)cc3)cn12 [compound 73]	inhibition at 1 µM	10.4%
O=c1n(Cc2noc(COc3ncccn3)n2)nc2ccc(-c3ccc(OC(F)(F)F)cc3)cn12 [compound 162]	inhibition at 1 µM	18.5%
O=c1n(CCc2cc(C3CC3)ccn2)nc2ccc(-c3ccc(OC(F)(F)F)cc3)cn12 [compound 57]	inhibition at 1 µM	20.7%
CCOC(COc1ccc2nc(C)sc2c1)Cn1nc2ccc(-c3ccc(OC(F)(F)F)cc3)cn2c1=O (stereo not shown) [compound 124]	inhibition at 1 µM	31.2%
